experiment: qHTS assay to identify small molecule antagonists of the sonic hedgehog signaling (Shh) pathway (AID 1259369); conditions: NIH/3T3 Gli1-Luc reporter, Shh antagonist, luminescence 24 h; series mostly up to 92.4 µM; further: nearly all actives have a fitted effect of over 45% in size
Inconclusive results are not listed. Calls of active or inactive are those of the source. The call rests on the fitted dose curve.
Attribute measured: activity change, negative = inhibition

Below, each entry is followed by its recorded activity change, negative = inhibition result.
compound=O=C[C@@H](O)[C@H](O)[C@H](O)CO assay_result=inactive
compound="COc1ccccc1N1CCN(CC(O)COc2cc(OC)c(OC)c(OC)c2)CC1 (stereo not drawn)" assay_result=inactive
compound=CCOC(=O)CC assay_result=inactive
compound=CCCCCCCCCCCCCC(=O)OCC assay_result=inactive
compound=O=C(O)COc1ccc2ccccc2c1 assay_result=inactive

Prompt: Given the compound CC(C)CC(O)Cc1ccccc1 (stereo not drawn) , what is its reported activity change, negative = inhibition?
Completion: inactive

Prompt: Also `CN(C)c1cc(NC(=O)CNC(C)(C)C)c(O)c2c1C[C@H]1C[C@H]3[C@H](N(C)C)C(=O)C(C(N)=O)=C(O)[C@@]3(O)C(=O)C1=C2O` , if possible.
Completion: inactive
